- Test system: 786-0
- assay.details: NCI tumour cell line growth inhibition, 48 h
The source made the active and inactive calls. No stated cut-off is given here; in the data, active = GI50 up to about 1.1 µM and inactive = higher.
Reported GI50 values follow for various compounds
observed.property: GI50

compound: CCOC(=O)C1=C(NC)OCC1=O
observed.property: GI50
measurement: > 100 µM (inactive)
--
compound: O=C(O)c1cc(O)nc(S)n1
observed.property: GI50
measurement: > 100 µM (inactive)
--
compound: CC[C@@H](C)[C@H](NC(=O)[C@H](Cc1ccccc1)NCC(F)(F)F)C(=O)OC(C)(C)C
observed.property: GI50
measurement: > 100 µM (inactive)
--
compound: O=C1/C(=C/c2ccc(Cl)cc2)Oc2ccccc21
observed.property: GI50
measurement: 15.7 µM (inactive)
--
compound: COc1ccc2c(c1)[n+]([O-])c(C(=O)CC(=O)C(=O)Nc1cccc(Cl)c1C)c(C)[n+]2[O-]
observed.property: GI50
measurement: > 100 µM (inactive)
--
compound: COC(=O)C(Cc1c[nH]c2ccccc12)NC1=Nc2ccncc2S(=O)(=O)N1c1ccccc1 (stereo unspecified)
observed.property: GI50
measurement: 33.3 µM (inactive)

---

- Test system: RPMI-8226
- assay.details: NCI tumour cell line growth inhibition, 48 h
The source made the active and inactive calls. No stated cut-off is given here; in the data, active = GI50 up to about 1.1 µM and inactive = higher.

compound: O=[N+]([O-])c1ccc(C(O)(C#CCN2CCCC2)c2ccccc2)cc1 (stereo not given)
GI50: 26.7 µM (inactive)
--
compound: CCOc1cc(/C=C2/C(C)=NN(c3cccc(Cl)c3)/C2=N/c2nc3ccccc3s2)ccc1O
GI50: 38.3 µM (inactive)
--
compound: O=C1/C(=C/c2ccc(Br)s2)NC(=S)N1CN1CCCCC1
GI50: 17.6 µM (inactive)
--
compound: CC1(C)C(=O)/C=C\C(=O)C(C)(C)C(=O)/C=C\C(=O)C(C)(C)C(=O)/C=C\C(=O)C(C)(C)C(=O)/C=C\C1=O
GI50: 4.97 µM (inactive)
--
compound: CNc1ncnc2c1nnn2C
GI50: > 100 µM (inactive)

---

Reported GI50 values follow for various compounds
- Tested on: K562
- assay.details: NCI tumour cell line growth inhibition, 48 h
Active and inactive are the calls of the source. Cut-off read from the data, not from the text of the source: active = GI50 up to about 1.1 µM and inactive = higher.
observed.property: GI50

compound: O=c1c2ccccc2nc(-c2ccccc2)n1NC(=S)Nc1cccc(Cl)c1
observed.property: GI50
measurement: > 100 µM (inactive)
--
compound: COc1ccc(NCC#N)cc1
observed.property: GI50
measurement: > 100 µM (inactive)
--
compound: CCCCCCCSCC1OC(n2cnc3c(N)ncnc32)C(O)C1O (centres undefined)
observed.property: GI50
measurement: 22.8 µM (inactive)
--
compound: CCOC(=O)C(O)(CC1=NC(C(=O)OC)(C(=O)OC)C(c2cccc(C=O)c2)O1)C(=O)OCC (centres undefined)
observed.property: GI50
measurement: > 100 µM (inactive)
--
compound: N#Cc1ccc(C(=O)/C=C/c2ccc(O)c(O)c2)cc1
observed.property: GI50
measurement: 7.1 µM (inactive)
--
compound: COc1cc([C@@H]2c3cc4c(cc3[C@@H](NC(=O)c3ccc(C#N)cc3)C3COC(=O)[C@@H]32)OCO4)cc(OC)c1O (some centres undefined)
observed.property: GI50
measurement: 1.63 µM (inactive)
--
compound: NC(=S)N/N=C\c1ccc(OCc2cccc(COc3ccc(/C=N/NC(N)=S)cc3)n2)cc1
observed.property: GI50
measurement: 18.6 µM (inactive)
--
compound: N=C(N)N/N=C(/c1nc2ccc([N+](=O)[O-])cc2[nH]c1=O)C(O)c1ccc([N+](=O)[O-])cc1 (centres undefined)
observed.property: GI50
measurement: > 100 µM (inactive)
--
compound: CCOC(=O)c1cc2cc3c4c(c2oc1=O)CCCN4CCC3
observed.property: GI50
measurement: 38.3 µM (inactive)

---

- System: SK-OV-3
- assay.details: NCI tumour cell line growth inhibition, 48 h
The source made the active and inactive calls. Cut-off read from the data, not from the text of the source: active = GI50 up to about 1.1 µM and inactive = higher.

molecule: COC(=O)[C@@H]1CN(C(=O)CCc2ccccc2)C(=O)N1C(=O)OCc1ccccc1
GI50: > 100 µM (inactive)
//
molecule: COc1ccc(-c2cc(=O)c3c(O)c(OC)c(OC)c(OC)c3o2)cc1OC [5-DEMETHYLNOBILETIN]
GI50: 20.4 µM (inactive)
//
molecule: COC(=O)NN=C1C(C)(C)C(=O)C1(C)C
GI50: > 100 µM (inactive)
//
molecule: OCCCNc1[nH]cnc2nncc1-2
GI50: > 100 µM (inactive)
//
molecule: CCC12CCCN(Cc3ccccc3)C1c1c([nH]c3ccccc13)C(C(=O)OC)C2 (stereo not given)
GI50: > 10 µM (inactive)

---

- Test system: HCT-116
- assay.details: NCI tumour cell line growth inhibition, 48 h
Activity calls are given as the source filed them. Rule as the data show it: active = GI50 up to about 1.1 µM and inactive = higher.
Reported GI50 values follow for various compounds

compound: CC(C)OC(=O)c1cc(NC(=O)C(C)(C)C)c(F)cc1Cl
GI50: > 100 µM (inactive)
--
compound: CCC1=CCC23C(=O)C=CC(=O)C2(C1)C(=O)c1cccc(OC)c1C3=O (stereo unspecified)
GI50: 14.6 µM (inactive)
--
compound: COc1ccc(N2C(=O)C3c4[nH]c5ccccc5c4C4CCC(C(C)C)CC4C3C2=O)cc1 (stereo unspecified)
GI50: > 100 µM (inactive)
--
compound: C/C=C/COc1cc(NC(=S)c2ccoc2C)ccc1OC
GI50: > 100 µM (inactive)
--
compound: CCOC(=O)c1c(-c2ccccc2)oc(-c2ccccc2)c1C(=O)OCC
GI50: > 100 µM (inactive)
--
compound: N#CC(N)c1ccc(OCCCCCCCCCCOc2ccc(C(N)C#N)cc2)cc1 (stereo unspecified)
GI50: 80 µM (inactive)
--
compound: [O-]c1c2c(nn1-c1ccc(Cl)cc1)c1ccccc1c[n+]2Cc1ccccc1
GI50: > 100 µM (inactive)
--
compound: O=C(O)c1cc(O)nc(S)n1
GI50: > 100 µM (inactive)
--
compound: COc1ccc(NCC#N)cc1
GI50: > 100 µM (inactive)
--
compound: CC1(C)C(=O)/C=C\C(=O)C(C)(C)C(=O)/C=C\C(=O)C(C)(C)C(=O)/C=C\C(=O)C(C)(C)C(=O)/C=C\C1=O
GI50: 15.7 µM (inactive)
--
compound: CCOP(=O)(OCC)/C(C#N)=C/c1ccco1
GI50: > 100 µM (inactive)
--
compound: COc1ccc(CN2C[C@H]3[C@@H](CC(=O)O[C@H]3C)CC2=O)cc1
GI50: > 100 µM (inactive)
--
compound: O=c1[nH]c(=O)n2n1C1C=CC2CC1
GI50: > 100 µM (inactive)
--
compound: O=c1[nH]nc(Cc2ccc(Cl)cc2)n1/N=C/c1c[nH]c2ccccc12
GI50: > 100 µM (inactive)
--
compound: CC(C)(C)OC(=O)NCCc1ccc(N)cc1
GI50: > 100 µM (inactive)
--
compound: CS/C(=C(\S)c1ccccc1)c1ccccc1
GI50: > 100 µM (inactive)
--
compound: COC(=O)/C=C\c1ccc2c(c1)CC1(C2)Cc2ccc(/C=C/C(=O)OC)cc2C1 (stereo unspecified)
GI50: 24.4 µM (inactive)
--
compound: COC(=O)[C@H](Cc1ccccc1)NC(=O)/C(=C/C(C)C)NC(=O)[C@H](CCSC)NC=O
GI50: > 100 µM (inactive)
--
compound: CC1=C(c2cc(C(=O)Nc3cccc(C(F)(F)F)c3)nc(NC#N)n2)Sc2ccccc2N1
GI50: > 100 µM (inactive)
--
compound: Nc1ccn(C2C=C(CO)C(O)C2O)c(=O)c1 (stereo unspecified)
GI50: > 625 µM (inactive)
--
compound: CC(C)Cc1cccc(C(C)C)c1NC(=O)CCC(=O)N/N=C1\C(=N/NC(=O)CCC(=O)Nc2c(C(C)C)cccc2C(C)C)C(c2ccc3c(c2)OCO3)Oc2ccccc21 (stereo unspecified)
GI50: 61.2 µM (inactive)

---

- Tested on: A549
- assay.details: NCI tumour cell line growth inhibition, 48 h
The source made the active and inactive calls. Rule as the data show it: active = GI50 up to about 1.1 µM and inactive = higher.
observed.property: GI50

molecule: COC(=O)C(C(=O)C(=O)Nc1c(C)cccc1C(C)(C)C)c1nc2ccc(Cl)cc2nc1O (centres undefined)
measurement: > 100 µM (inactive)

molecule: COC(=O)Cc1cccc2c(=O)c(S(=O)(=O)NC(=O)Nc3ccc(Cl)cc3)c(-c3ccccc3)oc12
measurement: 69.2 µM (inactive)

molecule: COc1ccc(/N=C2\S/C(=N\C(=N\c3ccccc3)SCc3ccccc3)N(c3ccccc3)\C2=N/c2ccc(OC)cc2)cc1
measurement: > 100 µM (inactive)

molecule: CCCn1c(=O)c2ccccc2[n+]2c(-c3ccc([N+](=O)[O-])cc3)csc12
measurement: 47 µM (inactive)

---

Reported GI50 values follow for various compounds
- System: CAKI-1
- assay.details: NCI tumour cell line growth inhibition, 48 h
Active and inactive are the calls of the source. Cut-off read from the data, not from the text of the source: active = GI50 up to about 1.1 µM and inactive = higher.

compound: COc1cc2cc(C(=O)N3CC(COS(C)(=O)=O)c4ccc(NC(=O)OCc5ccccc5)cc43)[nH]c2c(OC)c1OC (stereo not given)
tested.system: CAKI-1
GI50: > 100 µM (inactive)
//
compound: CCOC(=O)/C=C/n1c2ccccc2c(=O)c2cc(OC)ccc21
tested.system: CAKI-1
GI50: > 100 µM (inactive)
//
compound: COc1cc([C@@H]2c3cc4c(cc3C[C@@H]3COC(=O)C32)OCO4)cc(OC)c1O (stereo not given in full)
tested.system: CAKI-1
GI50: 0.0183 µM (active)
//
compound: OCCCNc1[nH]cnc2nncc1-2
tested.system: CAKI-1
GI50: 9.82 µM (inactive)
//
compound: COc1cc(Cc2cc(OC)c(OC)c(OC)c2)ccc1O
tested.system: CAKI-1
GI50: 62.1 µM (inactive)
